Every entry's value here was drawn from patent US8772323B2.

Entries and their measured EC50 follow.
Experimental Target: UniProt Q8TDV5
Sequence (Q8TDV5 whole entry): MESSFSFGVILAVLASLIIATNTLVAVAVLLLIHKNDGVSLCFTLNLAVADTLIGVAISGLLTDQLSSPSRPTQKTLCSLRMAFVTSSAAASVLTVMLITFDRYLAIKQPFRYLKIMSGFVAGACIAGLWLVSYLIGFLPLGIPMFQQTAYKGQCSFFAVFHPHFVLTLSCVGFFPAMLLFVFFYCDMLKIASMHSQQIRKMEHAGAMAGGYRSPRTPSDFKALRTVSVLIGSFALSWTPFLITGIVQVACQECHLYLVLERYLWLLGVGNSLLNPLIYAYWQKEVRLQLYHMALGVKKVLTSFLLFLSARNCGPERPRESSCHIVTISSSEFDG
Test Details: AlphaScreen cAMP assay in Min-6/hGPR119 cells (GPR119 activation, intracellular cAMP)
Applied Conditions: MIN6 cells stably transfected with human GPR119; 45 minutes' incubation at RT; AlphaScreen cAMP Assay Kit
Give just the number in nM; leave the unit off.

• CC1CC(=O)NN=C1c1ccc2nc(-c3ccc(Cl)cc3)oc2c1 (stereo not shown) = 132
• CCC1CC(=O)NN=C1c1ccc2nc(-c3ccc(O[C@@H]4CCCC[C@H]4N(CC)CC)cc3)oc2c1 (relative stereo) = 319
• C=CC[C@H]1C(=O)NN=C(c2ccc3nc(-c4ccccc4)oc3c2)[C@H]1C (relative stereo) = 896

Here is another compound to look at.
Note to self: EC50 recorded for CC1CC(=O)NN=C1c1ccc2nc(-c3ccc(OCc4ccccc4)cc3)oc2c1 (stereo not shown) was 58

---

Experimental Target: UniProt Q8TDV5
Test Details: AlphaScreen cAMP assay in Min-6/hGPR119 cells (GPR119 activation, intracellular cAMP)
Applied Conditions: MIN6 cells stably transfected with human GPR119; 45 minutes' incubation at RT; AlphaScreen cAMP Assay Kit
Entries and their measured EC50 follow.
Give just the number in nM; leave the unit off.

• CCC1CC(=O)NN=C1c1ccc2nc(-c3ccc(N4CCOCC4)cc3)oc2c1 (centres unmarked) [Example 177] = 134
• CCC1CC(=O)NN=C1c1ccc2nc(-c3ccc(OC)c(OC)c3)oc2c1 (centres unmarked) [Example 92] = 460
• CCC[C@H]1C(=O)NN=C(c2ccc3nc(-c4ccc(F)cc4)oc3c2)[C@@H]1C (relative stereo) [Example 182] = 116
• CCC1CC(=O)NN=C1c1ccc2nc(-c3cccc(OC)c3)oc2c1 (centres unmarked) [Example 102] = 316
• CCC1CC(=O)NN=C1c1ccc2nc(-c3ccc(OC(C)CO)cc3)oc2c1 (centres unmarked) [Example 251] = 296

Recorded EC50 for CCC[C@H]1C(=O)NN=C(c2ccc3nc(-c4ccc(OCc5ccccc5)cc4)oc3c2)[C@H]1C (relative stereo) [Example 199] on UniProt Q8TDV5 was 832

Recorded EC50 for CCC[C@H]1C(=O)NN=C(c2ccc3nc(-c4ccc(Cl)cc4)oc3c2)[C@@H]1C (relative stereo) [Example 185] on UniProt Q8TDV5 was 142

Recorded EC50 for CCC1CC(=O)NN=C1c1ccc2nc(-c3ccc(CCc4ccccc4)cc3)oc2c1 (centres unmarked) [Example 76] on UniProt Q8TDV5 was 245

Recorded EC50 for CCC1CC(=O)NN=C1c1ccc2nc(-c3ccc(O)cc3)oc2c1 (centres unmarked) [Example 37] on UniProt Q8TDV5 was 636

Recorded EC50 for CCC1CC(=O)NN=C1c1ccc2nc(-c3ccc(OCCN4CCC5(CCCCC5)CC4)cc3)oc2c1 (centres unmarked) [Example 245] on UniProt Q8TDV5 was 434
